DC50 values by entry
Biological target: BRAF V600E (Homo sapiens, UniProt P15056, V600E)
Construct: expressed in transfected cells
Sequence (P15056 whole entry V600E): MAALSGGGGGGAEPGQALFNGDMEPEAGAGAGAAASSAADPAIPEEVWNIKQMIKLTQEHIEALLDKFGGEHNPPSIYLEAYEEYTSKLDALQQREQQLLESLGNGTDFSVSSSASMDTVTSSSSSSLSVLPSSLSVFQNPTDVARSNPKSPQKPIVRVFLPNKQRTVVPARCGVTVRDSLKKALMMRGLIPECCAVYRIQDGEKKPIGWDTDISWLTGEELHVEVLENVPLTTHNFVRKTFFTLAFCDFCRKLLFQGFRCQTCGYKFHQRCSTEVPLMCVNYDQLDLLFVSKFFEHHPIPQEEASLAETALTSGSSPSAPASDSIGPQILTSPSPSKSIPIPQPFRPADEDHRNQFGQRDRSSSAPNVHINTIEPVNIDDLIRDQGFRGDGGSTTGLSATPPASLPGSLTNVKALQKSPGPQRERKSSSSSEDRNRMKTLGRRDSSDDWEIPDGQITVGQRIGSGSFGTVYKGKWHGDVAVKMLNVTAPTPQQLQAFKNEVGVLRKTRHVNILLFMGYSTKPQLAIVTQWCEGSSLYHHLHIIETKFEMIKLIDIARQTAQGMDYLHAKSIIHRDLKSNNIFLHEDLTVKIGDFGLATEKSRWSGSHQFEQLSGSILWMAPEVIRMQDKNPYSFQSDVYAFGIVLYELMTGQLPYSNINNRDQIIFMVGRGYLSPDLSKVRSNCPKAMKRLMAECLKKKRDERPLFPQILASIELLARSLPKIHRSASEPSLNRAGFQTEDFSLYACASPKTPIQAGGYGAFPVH
Assay: Cellular assay of target protein degradation, T-Rex 293 cells stably transfected with HA-BRAF_V600E (HA immunofluorescence, high content imaging)
Assay type: cell-based
Details: half maximal degradation, T-Rex 293 HA-BRAF V600E; read-out: BRaf V600E DC50
MEASURE NAME: DC50

{"MOLECULE": "COc1cc(N2CC3(CN(CCc4ccc(-c5cnc6[nH]cc(C(=O)c7c(F)ccc(NS(=O)(=O)N8CC[C@@H](F)C8)c7F)c6c5)cc4)C3)C2)cc2c1C(=O)N(C1CCC(=O)NC1=O)C2 (stereo partly shown) [Compound 21]", "REPORTED": "5 to 50 nM"}
{"MOLECULE": "COc1cc(N2CC3(CN(CCc4ccc(-c5cnc6[nH]cc(C(=O)c7c(F)ccc(NS(=O)(=O)N8CC[C@@H](F)C8)c7F)c6c5)cc4)C3)C2)ccc1C(=O)NC1CCC(=O)NC1=O (stereo partly shown) [Compound 362]", "REPORTED": "5 to 50 nM"}
{"MOLECULE": "C[C@H]1[C@H](F)CCN1S(=O)(=O)Nc1ccc(F)c(C(=O)c2c[nH]c3ncc(-c4ccc(N5CCC(CN6CCC(c7ccc8c(c7)CN([C@H]7CCC(=O)NC7=O)C8=O)CC6)CC5)cc4)cc23)c1F [Compound 270]", "REPORTED": "5 to 50 nM"}
{"MOLECULE": "COc1cc(N2CC3(CN(CC4CCN(c5ccc(-c6cnc7[nH]cc(C(=O)c8c(F)ccc(NS(=O)(=O)N9CC[C@@H](F)C9)c8F)c7c6)cc5)CC4)C3)C2)cc2c1C(=O)N([C@@H]1CCC(=O)NC1=O)C2 [Compound 250]", "REPORTED": "5 to 50 nM"}
{"MOLECULE": "COc1cc(C2CCN(CC3CCN(c4ccc(-c5cnc6[nH]cc(C(=O)c7c(F)ccc(NS(=O)(=O)N8CC[C@@H](F)C8)c7F)c6c5)cc4F)CC3)CC2)cc2c1C(=O)N(C1CCC(=O)NC1=O)C2 (stereo partly shown) [Compound 163]", "REPORTED": "5 to 50 nM"}
{"MOLECULE": "O=C1CCC(N2Cc3cc(N4CCC(CN5CC[C@@H]6CN(c7ccc(-c8cnc9[nH]cc(C(=O)c%10c(F)ccc(NS(=O)(=O)N%11CC[C@@H](F)C%11)c%10F)c9c8)cc7)C[C@@H]6C5)CC4)ccc3C2=O)C(=O)N1 (stereo partly shown) [Compound 309]", "REPORTED": "5 to 50 nM"}
{"MOLECULE": "O=C1CCC(NC(=O)N2CCCc3c(N4CCN(CC5CCN(c6ccc(-c7cnc8[nH]cc(C(=O)c9c(F)ccc(NS(=O)(=O)N%10CC[C@@H](F)C%10)c9F)c8c7)cc6)CC5)CC4)ccnc32)C(=O)N1 (stereo partly shown) [Compound 370]", "REPORTED": "5 to 50 nM"}
{"MOLECULE": "O=C1CCC(N2Cc3cc(N4CCC(CN5CCN(C6(c7ncc(-c8cnc9[nH]cc(C(=O)c%10c(F)ccc(NS(=O)(=O)N%11CC[C@@H](F)C%11)c%10F)c9c8)cn7)CC6)CC5)CC4)ccc3C2=O)C(=O)N1 (stereo partly shown) [Compound 298]", "REPORTED": "50 to 500 nM"}
{"MOLECULE": "O=C1CCC(N2Cc3cc(C4CCN(C5CCN(c6ccc(-c7cnc8[nH]cc(C(=O)c9c(F)ccc(NS(=O)(=O)N%10CC[C@@H](F)C%10)c9F)c8c7)cc6)CC5)CC4)ccc3C2=O)C(=O)N1 (stereo partly shown) [Compound 326]", "REPORTED": "5 to 50 nM"}
{"MOLECULE": "O=C1CCC(N2Cc3cc(N4CCC(CN5CCN(c6ncc(-c7cnc8[nH]cc(C(=O)c9c(F)ccc(NS(=O)(=O)N%10CC[C@@H](F)C%10)c9F)c8c7)cn6)CC5)CC4)ccc3C2=O)C(=O)N1 (stereo partly shown) [Compound 18]", "REPORTED": "50 to 500 nM"}
{"MOLECULE": "C[C@@H](c1ncc(-c2cnc3[nH]cc(C(=O)c4c(F)ccc(NS(=O)(=O)N5CC[C@@H](F)C5)c4F)c3c2)cn1)N1CCN(CC2CCN(c3ccc4c(c3)CN([C@H]3CCC(=O)NC3=O)C4=O)CC2)CC1 [Compound 289]", "REPORTED": "50 to 500 nM"}
{"MOLECULE": "O=C1CC[C@H](N2Cc3cc(N4CC5(CN(CC6CCN(c7ccc(-c8cnc9[nH]cc(C(=O)c%10c(F)ccc(NS(=O)(=O)N%11CC[C@@H](F)C%11)c%10F)c9c8)cc7)CC6)C5)C4)ccc3C2=O)C(=O)N1 [Compound 221]", "REPORTED": "5 to 50 nM"}
{"MOLECULE": "O=C1CCC(N2Cc3cc(N4CC(CN5CCC(Cc6ccc(-c7cnc8[nH]cc(C(=O)c9c(F)ccc(NS(=O)(=O)N%10CC[C@@H](F)C%10)c9F)c8c7)cc6)CC5)C4)ccc3C2=O)C(=O)N1 (stereo partly shown) [Compound 303]", "REPORTED": "5 to 50 nM"}
